- system.tested: SARM1 (Homo sapiens)
- Construct: the inventor produces full-length SARM1 for NADase activity assays and for screening; His (C); digitonin lysate supernatant, not purified further)
- Sequence (Q6SZW1 28-724): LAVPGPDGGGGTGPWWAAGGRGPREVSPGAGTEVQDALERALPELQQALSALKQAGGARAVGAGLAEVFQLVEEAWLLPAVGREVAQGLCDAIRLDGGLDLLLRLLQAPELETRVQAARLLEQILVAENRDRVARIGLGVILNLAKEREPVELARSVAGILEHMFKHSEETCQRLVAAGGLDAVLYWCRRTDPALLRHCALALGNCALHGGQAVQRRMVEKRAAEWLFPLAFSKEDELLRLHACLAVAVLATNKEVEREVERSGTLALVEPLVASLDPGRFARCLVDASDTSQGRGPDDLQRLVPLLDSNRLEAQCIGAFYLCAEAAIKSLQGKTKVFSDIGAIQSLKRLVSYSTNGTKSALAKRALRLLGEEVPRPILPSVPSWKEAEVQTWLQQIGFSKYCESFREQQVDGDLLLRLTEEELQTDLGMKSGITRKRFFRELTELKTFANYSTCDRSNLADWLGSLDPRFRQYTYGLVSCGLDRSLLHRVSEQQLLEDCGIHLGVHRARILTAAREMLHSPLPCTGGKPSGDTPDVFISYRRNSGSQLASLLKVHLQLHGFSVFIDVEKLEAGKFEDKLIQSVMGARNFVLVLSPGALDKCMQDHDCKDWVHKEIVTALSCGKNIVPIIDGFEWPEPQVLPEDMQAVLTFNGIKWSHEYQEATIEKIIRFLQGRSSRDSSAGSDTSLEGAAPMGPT
- assay.comment: In vitro biochemical assay for inhibiting SARM1 enzymatic activity (PC6 fluorescence, NAD substrate, NMN activator)
- measurement.context: 0.05 µg/mL SARM1, 50 µM NAD, 50 µM PC6, 50 µM NMN, 10 min pre-incubation, 30 min at room temperature
result.type: IC50

compound="O=C1N(Cc2ccc(Cl)cc2)CCN1c1ccc(-c2ccncc2)nn1 [Compound 59]" readout_value="< 1000 nM"
compound="O=C1C(Cc2ccc(Cl)o2)CCN1c1ccc(-c2ccncc2)cc1 (stereo not drawn) [Compound 73]" readout_value="1000 to 10000 nM"
compound="Cc1cnccc1-c1ccc(N2CCC(Cc3ccc(Cl)cc3)C2=O)nn1 (stereo not drawn) [Compound 74]" readout_value="< 1000 nM"
compound="O=C1C(CCc2ccc(Cl)cc2)CCN1c1ccc(-c2ccncc2)cc1 (stereo not drawn) [Compound 27]" readout_value="10000 to 30000 nM"
compound="O=C1C(Cc2ccc(Cl)cc2)CCN1c1ccc(-c2ccncc2F)cc1 (stereo not drawn) [Compound 35]" readout_value="< 1000 nM"
compound="O=C1C(Cc2ccc(Cl)cc2)CCN1c1ccc(-c2ccncc2)nc1 (stereo not drawn) [Compound 7]" readout_value="1000 to 10000 nM"
compound="O=C1N(c2ccc(-c3ccncc3)cc2)CCC1(O)Cc1ccc(F)c(F)c1 (stereo not drawn) [Compound 84]" readout_value="1000 to 10000 nM"
compound="O=C1C(Cc2cc(F)c(F)c(F)c2)CCN1c1ccc(-c2ccncc2)nn1 (stereo not drawn) [Compound 71]" readout_value="< 1000 nM"
compound="O=C1C(Cc2ccc(C(F)(F)F)cc2)CCN1c1ccc(-c2ccncc2)nn1 (stereo not drawn) [Compound 60]" readout_value="< 1000 nM"

====

- system.tested: SARM1 (Homo sapiens)
- Construct: the inventor produces full-length SARM1 for NADase activity assays and for screening; His (C); digitonin lysate supernatant, not purified further)
- assay.comment: In vitro biochemical assay for inhibiting SARM1 enzymatic activity (PC6 fluorescence, NAD substrate, NMN activator)
- measurement.context: 0.05 µg/mL SARM1, 50 µM NAD, 50 µM PC6, 50 µM NMN, 10 min pre-incubation, 30 min at room temperature
pIC50: −log10 of the molar value.
Reported pIC50 values for the following compounds.
result.type: pIC50

compound="CN1CCN(Cc2ccc(CC3CCN(c4ccc(-c5ccncc5)cc4)C3=O)cc2)CC1 (stereo not drawn)" system_tested="SARM1 (Homo sapiens)" result_type=pIC50 readout_value="4.52 to 5.00"
compound="O=C1C(Cc2ccc(F)cc2F)CCN1c1ccc(-c2ccncc2)cc1 (stereo not drawn)" system_tested="SARM1 (Homo sapiens)" result_type=pIC50 readout_value="5.00 to 6.00"
compound="O=C1C(Oc2ccc(Cl)cc2)CCN1c1ccc(-c2ccncc2)cc1 (stereo not drawn)" system_tested="SARM1 (Homo sapiens)" result_type=pIC50 readout_value="4.52 to 5.00"
compound="O=C1C(Cc2ccc(Cl)nc2)CCN1c1ccc(-c2ccncc2)cc1 (stereo not drawn)" system_tested="SARM1 (Homo sapiens)" result_type=pIC50 readout_value="5.00 to 6.00"
compound="O=C1C(Cc2ccc(C(F)(F)F)cc2)CCN1c1ccc(-c2ccncc2)cc1 (stereo not drawn)" system_tested="SARM1 (Homo sapiens)" result_type=pIC50 readout_value="5.00 to 6.00"
compound="O=C1[C@H](Cc2ccc(F)c(F)c2)CCN1c1ccc(-c2ccncc2)cc1 (single isomer, unassigned) [Compound 81]" system_tested="SARM1 (Homo sapiens)" result_type=pIC50 readout_value="> 6.00"
compound="O=C1C(Cc2ccc(F)cc2F)CCN1c1ccc(-c2ccncc2)nn1 (stereo not drawn)" system_tested="SARM1 (Homo sapiens)" result_type=pIC50 readout_value="> 6.00"
compound="O=C1[C@H](Cc2ccc(F)c(F)c2)CCN1c1ccc(-c2ccncc2)cc1 (single isomer, unassigned) [Compound 82]" system_tested="SARM1 (Homo sapiens)" result_type=pIC50 readout_value="> 6.00"
compound="O=C1C(Cc2cc(F)cc(F)c2)CCN1c1ccc(-c2ccncc2)cc1 (stereo not drawn)" system_tested="SARM1 (Homo sapiens)" result_type=pIC50 readout_value="5.00 to 6.00"
compound="N#Cc1cnccc1-c1ccc(N2CCC(Cc3ccc(Cl)cc3)C2=O)cc1 (stereo not drawn)" system_tested="SARM1 (Homo sapiens)" result_type=pIC50 readout_value="4.52 to 5.00"
compound="O=C1C(Cc2ccc(Cl)cc2)CCN1c1ccc(-c2ccncc2Cl)cc1 (stereo not drawn)" system_tested="SARM1 (Homo sapiens)" result_type=pIC50 readout_value="> 6.00"
compound="COc1cc(-c2ccncc2)ccc1N1CCCC(Cc2ccc(Cl)cc2)C1=O (stereo not drawn)" system_tested="SARM1 (Homo sapiens)" result_type=pIC50 readout_value="5.00 to 6.00"
compound="O=C1C(Cc2ccc(Cl)cc2)CCN1c1ccc(-c2ccncc2)cc1Cl (stereo not drawn)" system_tested="SARM1 (Homo sapiens)" result_type=pIC50 readout_value="4.52 to 5.00"
compound="O=C1C(Cc2ccc(Cl)s2)CCN1c1ccc(-c2ccncc2)cc1 (stereo not drawn)" system_tested="SARM1 (Homo sapiens)" result_type=pIC50 readout_value="> 6.00"
compound="[2H]C(c1ccc(Cl)cc1)C1([2H])CCN(c2ccc(-c3ccncc3)cc2)C1=O (stereo not drawn)" system_tested="SARM1 (Homo sapiens)" result_type=pIC50 readout_value="5.00 to 6.00"
compound="O=C1C(Cc2ccccc2)CCN1c1ccc(-c2ccncc2)cc1 (stereo not drawn)" system_tested="SARM1 (Homo sapiens)" result_type=pIC50 readout_value="5.00 to 6.00"
compound="O=C1C(Cc2ccc(Cl)cc2F)CCN1c1ccc(-c2ccncc2)nn1 (stereo not drawn)" system_tested="SARM1 (Homo sapiens)" result_type=pIC50 readout_value="> 6.00"
compound="Cc1ccc(CC2CCN(c3ccc(-c4ccncc4)cc3)C2=O)cc1 (stereo not drawn)" system_tested="SARM1 (Homo sapiens)" result_type=pIC50 readout_value="5.00 to 6.00"
